B1: library; numbered along this chain (parent)
chain: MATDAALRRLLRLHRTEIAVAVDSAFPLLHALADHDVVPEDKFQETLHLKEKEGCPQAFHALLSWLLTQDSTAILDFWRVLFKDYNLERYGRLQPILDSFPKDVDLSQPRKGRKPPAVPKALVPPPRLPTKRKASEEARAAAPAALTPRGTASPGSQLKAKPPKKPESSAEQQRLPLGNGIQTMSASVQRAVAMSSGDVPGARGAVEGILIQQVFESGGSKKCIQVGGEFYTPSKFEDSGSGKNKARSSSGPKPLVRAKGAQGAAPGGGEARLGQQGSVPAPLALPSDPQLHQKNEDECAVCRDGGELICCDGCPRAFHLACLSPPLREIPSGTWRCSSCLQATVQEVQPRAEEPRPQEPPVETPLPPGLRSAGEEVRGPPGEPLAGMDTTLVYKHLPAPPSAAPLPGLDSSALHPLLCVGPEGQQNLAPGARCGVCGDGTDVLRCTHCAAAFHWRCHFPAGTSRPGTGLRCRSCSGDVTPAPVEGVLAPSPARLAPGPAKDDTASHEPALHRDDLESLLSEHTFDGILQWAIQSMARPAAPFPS

- Variants of: B1
- protocol.notes: AIRE transcriptional activation functional score (insulin promoter-GFP; nonsense median 0, synonymous median 1) (normalised score); higher = higher AIRE activity (more reporter activation)
- condition.parameters: with insulin promoter-GFP reporter in HEK293
Hi there, I'd appreciate the recorded AIRE transcriptional activation functional score for every entry that follows.
Answer with a number only.

Endpoint output: AIRE transcriptional activation functional score of G467I . Value?
0.79

Endpoint output: AIRE transcriptional activation functional score of S324T . Value?
0.785

Endpoint output: AIRE transcriptional activation functional score of A265C . Value?
0.821
